tested on: SK-MEL-5; test: NCI tumour cell line growth inhibition, 48 h
Activity calls are given as the source filed them. No stated cut-off is given here; in the data, active = GI50 up to about 1.1 µM and inactive = higher.
Measurement Name: GI50

IN: Lab note: need GI50 for CC1(C)CC(c2c[nH]c3ccccc23)=CC2=Nc3ccccc3C21O (stereo not given) on SK-MEL-5, anyone have it?
OUT: 36.4 µM (inactive)

IN: Lab note: need GI50 for `CC(=O)NNc1nc(C)c(C(=O)NNC(=O)C(=O)Nc2ccc(Cl)cc2Cl)s1` on SK-MEL-5, anyone have it?
OUT: 30.5 µM (inactive)

IN: Lab note: need GI50 for CC1(C)C2CCC(O)(C2)C1N (stereo not given) on SK-MEL-5, anyone have it?
OUT: > 100 µM (inactive)

IN: Lab note: need GI50 for `Cc1cc2c(cc1C)[n+]([O-])c(C(=O)C/C(=N/NC(=S)NN)C(=O)Nc1cccc(C(F)(F)F)c1)c[n+]2[O-]` on SK-MEL-5, anyone have it?
OUT: > 100 µM (inactive)

IN: Lab note: need GI50 for C=C(C)C1Cc2c(cc(O)c3c(=O)c4ccccc4n(C)c23)O1 (stereo not given) on SK-MEL-5, anyone have it?
OUT: 27.7 µM (inactive)
